Hello, the source for this data is the supplement of paper PMC8728848, in case you need it.

Biological target: Fuc(a1-2)Gal(b1-3)[Fuc(a1-4)]GlcNAc
Assay: glycan array binding signal (z-score within array); higher = stronger binding
Details: glycan notation: IUPAC condensed, linker removed
The entries come from a sample that favours the strongest signals as a whole.
Measured Quantity: glycan array binding signal (z-score)
One number for each entry.

# count of solved cases: 2
AT1G15820(NC) (Arabidopsis thaliana) (protein) MAMAVSGAVLSGLGSSFLTGGKRGATALASGVGDAIAPFSFGSLLGTQLLLMGWVESKRWVDFFNPDSQSVEWATPWSKTAENFANYTGDQGYPGGRFFDPLGLAGKNRDGVYEPDFEKLERLKLAEIKHSRLAMVAMLIFYFEAGQGKTPLGALGL | -0.307
LICBM33A (Lactococcus lactis), Q9CE94 (protein) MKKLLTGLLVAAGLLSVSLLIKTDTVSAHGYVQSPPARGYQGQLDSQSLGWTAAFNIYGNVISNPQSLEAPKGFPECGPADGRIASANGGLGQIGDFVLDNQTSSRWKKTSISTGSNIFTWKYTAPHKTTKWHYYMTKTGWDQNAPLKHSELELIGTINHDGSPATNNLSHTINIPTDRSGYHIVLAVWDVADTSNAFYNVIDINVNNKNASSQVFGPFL | -0.377

Moving on to the next binder.
Could you share which glycan array binding signal (z-score) value was measured for OS9-MRH (Homo sapiens), Q13438 (protein) IPELLSPMRDAPCLLKTKDWWTYEFCYGRHIQQYHMEDSEIKGEVLYLGYYQSAFDWDDETAKASKQHRLKRYHSQTYGNGSKCDLNGRPREAEVRFLCDEGAGISGDYIDRVDEPLSCSYVLTIRTPRLCPHPLLRPPPSAAPQAI ?
-1.22
